- protocolNotes: Probe fluorescence ratio response to stearic acid relative to ADIFAB2
- Assay type: binding
- experimentalContext: response relative to ADIFAB2
measure: DR/DR SA
Lab note: record just the number, no unit beside it.

Worked cases, DR/DR SA given:
Input: Which measured DR/DR SA value corresponds to 72A 73P 74V (protein, listed as Rattus norvegicus, PEPTIDE (1)...(131) wild-type rat intestinal fatty acid binding protein) AFDGTWKVDRNENYEKFMEKMGINVVKRKLGAHDNLKLTITQEGNKFTVKESSNFRNIDVVFELGVDFAYSAPVGTELTGTWTMEGNKLVGKFKRVDNGKELIAVREISGNELIQTYTYEGVEAKRIFKKE ?
Output: 1.178

Input: What about 14L 18T 31E 73G 117G 72A (protein, listed as Rattus norvegicus, PEPTIDE (1)...(131) wild-type rat intestinal fatty acid binding protein) AFDGTWKVDRNENLEKFTEKMGINVVKRKLEAHDNLKLTITQEGNKFTVKESSNFRNIDVVFELGVDFAYSAGDGTELTGTWTMEGNKLVGKFKRVDNGKELIAVREISGNELIQTGTYEGVEAKRIFKKE ?
Output: 0.413

Attention now turns to another entry.
Input: Fill in: DR/DR SA of 21W 78F 72A (protein, listed as Rattus norvegicus, PEPTIDE (1)...(131) wild-type rat intestinal fatty acid binding protein) AFDGTWKVDRNENYEKFMEKWGINVVKRKLGAHDNLKLTITQEGNKFTVKESSNFRNIDVVFELGVDFAYSAADGTEFTGTWTMEGNKLVGKFKRVDNGKELIAVREISGNELIQTYTYEGVEAKRIFKKE is ___
Output: 1.161

The measured values listed here are drawn from patent US20060257938A1.
